Reference source: paper PMC8809517

Kindly supply the reported pKd values for the records listed here.
Molecular target: T1, GFP-9S library array, motif 4 ND N98P;D124C (synthetic construct, N98P;D124C)
T1 chain: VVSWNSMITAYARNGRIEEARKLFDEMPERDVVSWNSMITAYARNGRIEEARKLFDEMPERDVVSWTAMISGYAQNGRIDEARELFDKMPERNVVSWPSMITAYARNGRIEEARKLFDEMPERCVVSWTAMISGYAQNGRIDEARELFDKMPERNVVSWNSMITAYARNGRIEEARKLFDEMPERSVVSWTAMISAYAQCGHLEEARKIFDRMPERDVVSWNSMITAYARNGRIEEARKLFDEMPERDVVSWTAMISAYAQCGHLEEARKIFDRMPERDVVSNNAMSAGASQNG
Assay: high-throughput RNA pulldown from lysate on Ni-NTA beads; HRP: 50 mM Tris pH 8, 150 mM NaCl, 1 mM beta-mercaptoethanol, 50 ug/ml BSA, 3 ug/ml yeast RNA, 0.5% heparin; ITC and FP: Tris pH 8, 200 mM KCl, 5% glycerol; MST: 50 mM Tris pH 8, 200 mM NaCl, 1 mM DTT, BSA, heparin, 0.05% Tween 20
Conditions: tags: N-terminal His-eGFP; label: 5' IRDye 800CW
Keep it numeric: pKd is minus log10 of the concentration in mol/L.

Look up pKd: AUUAUACGUGA (ssRNA) [IR-rpoA-U]
6.06

Look up pKd: AUUAAACGUGA (ssRNA) [IR-rpoA-A]
6.18
